- Experimental setup: in n-propanol, 308.15 K
Reported metric: solubility (mole fraction)

Request: What value of solubility (mole fraction) has been reported for the following compound? Nc1nc(N)nc(-c2ccncc2)n1
Response: 0.00111

* * *

- Experimental setup: in methanol, 303.15 K
Reported metric: solubility (mole fraction)
I'd appreciate a reply containing only the number, no unit.

Request: Entry Nc1nc(N)nc(-c2ccncc2)n1 has what solubility (mole fraction)?
Response: 0.00198

Ref: BigSolDB 2.1
